Assay: chemical recovery into PDMS from spiked human plasma; higher = better extraction
Details: pooled human plasma; extraction method: PES with PDMS; equilibration time (d): 1
observation_type: chemical recovery into PDMS (%)
Answer in %, number only, no unit symbol.

| molecule | chemical recovery into PDMS / % |
| --- | --- |
| CCCCCCCCn1sccc1=O [2-Octyl-4-isothiazolin-3-one] | 33.3 |
| CCOC(=O)c1cn2nc(OP(=S)(OCC)OCC)cc2nc1C [Pyrazophos] | 39.1 |
| NC(=O)N1c2ccccc2CC(O)c2ccccc21 (stereo not given) [10,11-Dihydro-10-hydroxycarbamazepine] | 0.612 |
| C[C@]12CC(=O)[C@H]3[C@@H](CCC4=CC(=O)CC[C@@]43C)[C@@H]1CC[C@@H]2O [11-Ketotestosterone] | 4.7 |
| CC/C(=N\OC/C=C/Cl)C1=C(O)CC(C2CCOCC2)CC1=O (stereo not given) [Tepraloxydim] | 0.0964 |
| Nc1ccccc1Br [2-Bromoaniline] | 6.56 |
| C[C@@H]1C[C@H]2[C@@H]3CCC4=CC(=O)C=C[C@]4(C)[C@@]3(Cl)[C@@H](O)C[C@]2(C)[C@@]1(OC(=O)c1ccco1)C(=O)CCl [Mometasone fuorate] | 22.4 |
| CC(C)(C#N)c1cc(Cn2cncn2)cc(C(C)(C)C#N)c1 [Anastrozole] | 34.8 |

Query: Report chemical recovery into PDMS for Clc1cc(Cl)c(-c2cc(Cl)c(Cl)cc2Cl)cc1Cl [PCB153]
Response: 55.1

Query: Report chemical recovery into PDMS for O=C(Nc1ccc(Cl)cc1)Nc1ccc(Cl)c(Cl)c1 [Triclocarban]
Response: 5.9

Query: Report chemical recovery into PDMS for COCC(=O)N(c1c(C)cccc1C)C(C)C(=O)OC (stereo not given) [Metalaxyl]
Response: 33.1

Query: Report chemical recovery into PDMS for C=CCOC(Cn1ccnc1)c1ccc(Cl)cc1Cl (stereo not given) [Imazalil]
Response: 20
